Origin of values: patent US20240158446A1

target: UniProt P01116; experiment: Binding to KRAS by surface plasmon resonance (SPR), Single Cycle Kinetics; settings: SPR Single Cycle Kinetics, GDP-bound KRAS wild-type protein, 1:1 binding model; read-out: KRAS KD
Sequence (P01116 whole entry): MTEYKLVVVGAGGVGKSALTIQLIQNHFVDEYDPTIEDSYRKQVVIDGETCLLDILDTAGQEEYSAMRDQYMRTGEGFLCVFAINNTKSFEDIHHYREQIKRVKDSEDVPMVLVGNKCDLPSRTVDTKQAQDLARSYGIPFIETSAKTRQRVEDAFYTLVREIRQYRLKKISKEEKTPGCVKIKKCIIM
Where a SMILES comes first, the peptide text is derived from it. Bridges are numbered along the chain shown (N, C = ends). [ ]: non-standard residue; d: D form. The star is where a group is joined. hPhe(3-Cl-4-CF3) = N[C@@H](CCc1ccc(C(F)(F)F)c(Cl)c1)C(=O)O; NPrPhe(4-CF3) = CCCN[C@@H](Cc1ccc(C(F)(F)F)cc1)C(=O)O; NMeGly(cPent) = CN[C@H](C(=O)O)C1CCCC1; Pro(4,4-F2) = O=C(O)[C@@H]1CC(F)(F)CN1; Hyp = O=C(O)[C@@H]1C[C@@H](O)CN1; NMeD = CN[C@@H](CC(=O)O)C(=O)O; NMeL = CN[C@@H](CC(C)C)C(=O)O; Morpholide = C1CN(*)CCO1; NMeA = CN[C@@H](C)C(=O)O; Ac5c = NC1(C(=O)O)CCCC1; Aze = O=C(O)[C@@H]1CCN1; Ac4c = NC1(C(=O)O)CCC1; Sar = CNCC(=O)O
Measured Parameter: Kd (pM)
// note: answer is a bare numeric in pM

Examples with their reported Kd follow.
[[record]]
compound = "CCO[C@@H]1C[C@H]2C(=O)NC3(CC(C)(C)C3)C(=O)N(C)[C@@H](C(CC)CC)C(=O)N(C)[C@H](C(=O)N(C)C)CC(=O)N(C)[C@@H](COC)C(=O)N[C@@H]([C@@H](C)CC)C(=O)N(C3CC3)CC(=O)N(C)[C@H]3C/C=C\\CCN(C3=O)[C@@H](CC3CCCCC3)C(=O)N(C)CC(=O)N[C@@H](CCc3cc(F)c(C(F)(F)F)c(F)c3)C(=O)N2C1 [PP2564]"
measured_parameter = "Kd"
unit_descriptor = "pM"
experimental_value = 7600

[[record]]
compound = "CC[C@H](C)[C@@H]1NC(=O)[C@H](CC(C)C)N(C)C(=O)C[C@@H](C(=O)N2CCCCC2)N(C)C(=O)[C@H](C2CCCC2)N(C)C(=O)C2(CCCC2)NC(=O)[C@@H]2CCCN2C(=O)[C@H](CCc2cc(F)c(C(F)(F)F)c(F)c2)NC(=O)CN(C)C(=O)[C@H](Cc2ccc(C(F)(F)F)cc2)N2CCCC[C@@H](C2=O)N(C)C(=O)CN(C)C1=O [PP0572]"
measured_parameter = "Kd"
unit_descriptor = "pM"
experimental_value = 140

[[record]]
compound = "CCCN1C(=O)[C@@H]2CCN2C(=O)CN(C)C(=O)[C@H]([C@@H](C)CC)NC(=O)[C@H](CC(C)C)N(C)C(=O)C[C@@H](C(=O)N2CCOCC2)N(C)C(=O)[C@H](C2CCCC2)N(C)C(=O)C2(CCC2)NC(=O)[C@@H]2CC(F)(F)CN2C(=O)[C@H](CCc2ccc(C(F)(F)F)c(Cl)c2)NC(=O)CN(C)C(=O)[C@@H]1Cc1ccc(C(F)(F)F)cc1 [PP0409] ([NMeL]I[Sar][Aze][NPrPhe(4-CF3)][Sar][hPhe(3-Cl-4-CF3)][Pro(4,4-F2)][Ac4c][NMeGly(cPent)][NMeD]-Morpholide; lactam N-11)"
measured_parameter = "Kd"
unit_descriptor = "pM"
experimental_value = 56


Any idea what its Kd is? The compound is CCCN1C(=O)[C@@H]2CCN2C(=O)[C@H](C)N(C)C(=O)[C@H]([C@@H](C)CC)NC(=O)[C@H](CC(C)C)N(C)C(=O)C[C@@H](C(=O)N2CCOCC2)N(C)C(=O)[C@H](C2CCCC2)N(C)C(=O)C2(CCCC2)NC(=O)[C@@H]2C[C@@H](OC)CN2C(=O)[C@H](CCc2ccc(C(F)(F)F)c(Cl)c2)NC(=O)CN(C)C(=O)[C@@H]1Cc1ccc(C(F)(F)F)cc1 [PP0283] ([NMeL]I[NMeA][Aze][NPrPhe(4-CF3)][Sar][hPhe(3-Cl-4-CF3)][Hyp](Me)[Ac5c][NMeGly(cPent)][NMeD]-Morpholide; lactam N-11)
63

Any idea what its Kd is? The compound is CCOC[C@H]1C(=O)N[C@@H]([C@@H](C)CC)C(=O)N(C)CC(=O)N(C)[C@H]2C/C=C\CCN(C2=O)[C@@H](Cc2ccc(C(F)(F)F)cc2)C(=O)N(C)CC(=O)N[C@@H](CCc2cc(F)c(C(F)(F)F)c(F)c2)C(=O)N2C[C@H](OCC)C[C@H]2C(=O)NC2(CC(C)(C)C2)C(=O)N(C)[C@@H](CC(C)(C)C)C(=O)N(C)[C@H](C(=O)N(C)C)CC(=O)N1C [PP2732]
67
